I'd be grateful if you could share measured EC50 for these entries.
target: T1, human VEGFA165 (human, UniProt P15692-4 27-191); experiment: ELISA, coated human VEGFA165, anti-His detection
T1 construct: Bought protein from two suppliers, treated as one molecule; the supplier is named under assay; also called antigen VEGFA
T1 sequence (P15692 other isoform, or with tags, fused parts or gaps limits assumed): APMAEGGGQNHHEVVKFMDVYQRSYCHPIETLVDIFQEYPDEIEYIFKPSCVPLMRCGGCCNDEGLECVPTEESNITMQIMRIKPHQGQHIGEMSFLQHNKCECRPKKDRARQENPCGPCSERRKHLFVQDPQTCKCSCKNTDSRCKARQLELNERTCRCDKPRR
Numbers only here, please. The scale is nM.

Value of EC50 reported for the binder 2V1-SA1-NL (VHH, Tandem bivalent humanized nanobody) EVQLVESGGGLVQPGGSLRLSCAVSGRTFSSYTMGWFRQAPGKEREFVVAISKGGYKYDSVSLEARFTISRDNAKNTVYLQMNSLRPEDTAVYYCAATRAYGSSRLRLADTYEYWGQGTLVTVSSEVQLVESGGGLVQPGGSLRLSCAVSGRTFSSYTMGWFRQAPGKEREFVVAISKGGYKYDSVSLEARFTISRDNAKNTVYLQMNSLRPEDTAVYYCAATRAYGSSRLRLADTYEYWGQGTLVTVSS is 0.28

Value of EC50 reported for the binder 2V1-DP-9GS (VHH, Tandem bivalent humanized nanobody) EVQLVESGGGLVQPGGSLRLSCAVSGRTFSSYTMGWFRQAPGKEREFVVAISKGGYKYDSVSLEARFTISRDNSKNTVYLQMNSLRPEDTAVYYCAATRAYGSSRLRLADTYEYWGQGTLVTVSSGGGGSGGGSEVQLVESGGGLVQPGGSLRLSCAVSGRTFSSYTMGWFRQAPGKEREFVVAISKGGYKYDSVSLEARFTISRDNSKNTVYLQMNSLRPEDTAVYYCAATRAYGSSRLRLADTYEYWGQGTLVTVSS is 0.23
